FYI, the data here is from patent US20240174662A1.

target: SIK2 (Homo sapiens (Human), UniProt Q9H0K1); experiment: SIK2 Enzymatic Assay Version 2 (High ATP); format: biochemical; settings: 3 mM ATP and 200 μM HDAC5tide final, ADP-Glo Max luminescence
Sequence (Q9H0K1 whole entry, species assumed): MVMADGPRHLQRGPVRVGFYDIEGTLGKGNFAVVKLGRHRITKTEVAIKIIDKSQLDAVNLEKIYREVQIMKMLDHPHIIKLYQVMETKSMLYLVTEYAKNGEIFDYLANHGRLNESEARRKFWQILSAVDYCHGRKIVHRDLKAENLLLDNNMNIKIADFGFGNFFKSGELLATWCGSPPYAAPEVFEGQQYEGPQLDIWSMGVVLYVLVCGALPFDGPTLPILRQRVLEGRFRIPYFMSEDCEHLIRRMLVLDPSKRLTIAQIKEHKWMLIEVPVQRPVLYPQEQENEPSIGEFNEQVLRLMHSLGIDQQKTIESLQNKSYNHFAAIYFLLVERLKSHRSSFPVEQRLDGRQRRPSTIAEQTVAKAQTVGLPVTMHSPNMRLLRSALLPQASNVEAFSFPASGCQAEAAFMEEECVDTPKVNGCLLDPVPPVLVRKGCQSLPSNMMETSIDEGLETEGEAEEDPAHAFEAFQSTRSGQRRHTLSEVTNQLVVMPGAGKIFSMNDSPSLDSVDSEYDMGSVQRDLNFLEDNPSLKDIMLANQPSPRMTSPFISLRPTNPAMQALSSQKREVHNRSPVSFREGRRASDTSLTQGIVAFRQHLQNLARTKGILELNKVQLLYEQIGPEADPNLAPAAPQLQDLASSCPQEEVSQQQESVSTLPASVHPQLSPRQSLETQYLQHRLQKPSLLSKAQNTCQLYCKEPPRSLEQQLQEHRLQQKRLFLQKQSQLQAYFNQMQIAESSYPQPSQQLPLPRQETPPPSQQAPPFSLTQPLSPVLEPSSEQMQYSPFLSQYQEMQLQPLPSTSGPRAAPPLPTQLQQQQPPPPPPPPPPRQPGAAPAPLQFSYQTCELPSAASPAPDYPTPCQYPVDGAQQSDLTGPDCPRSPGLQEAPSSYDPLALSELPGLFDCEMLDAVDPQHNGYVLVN
measured_property: pIC50
Hey, just a heads up that pIC50 is the negative log base 10 of the concentration in molar.

Solved entries (count: 3):
| compound | pIC50 |
| --- | --- |
| Cn1ncc(OC[C@H]2C[C@H](N)C2)c1-c1ccn2nc(NC(=O)C3CC3)cc2c1 [Example 334] | 7.26 |
| Cc1cc(Nc2cc3cc(-c4c(OC[C@H]5CCN5)cnn4C)ccn3n2)nc(C)n1 [Example 42] | 7.84 |
| CN1CC(F)(COc2cnn(C)c2-c2ccn3nc(NC(=O)C4CC4)cc3c2)C1 [Example 405] | 7.01 |

Ask | Need pIC50 of Cc1onc(OC[C@H](N)c2ccccc2)c1-c1ccn2nc(NC(=O)C3CC3)cc2c1 [Example 204] , thanks.
Reply | 7.76

Ask | Queued: Cc1onc(OC2CCNCC2)c1-c1ccn2nc(NC(=O)C3CC3)cc2c1 [Example 316]
Reply | 7.30

Ask | Queued: Cc1cc(Nc2cc3cc(-c4c(OC[C@]5(C)CCOC5)cnn4C)ccn3n2)nc(C)n1 (single isomer, unassigned) [Example 440]
Reply | 7.15

Ask | Queued: Cc1onc(OC[C@H]2N(C)CC2(C)C)c1-c1ccn2nc(NC(=O)C3CC3)cc2c1 [Example 321]
Reply | 7.28
